# Test system: Staphylococcus sp.
# Test name: in vitro antibacterial evaluation, MIC by broth dilution
# Format: cell-based
# Condition context: strain ATCC 29213; broth dilution, 18 hours at 35° C.
Quantity measured: MIC Staphylococcus aureus (ATCC 29213) (µg/mL)
Give just the number in µg/mL; leave the unit off.

CC(c1ccccc1)C1NC(=O)CNC(=O)C(CO)NC(=O)C(C(O)C2CNC(=N)N2C2OC(CO)C(O)C(O)C2O)NC(=O)C(C(O)C2CNC(=N)N2)NC(=O)C(Cc2ccc3oc(-c4ccc(C(C)(C)C)cc4)nc3c2)NC1=O (stereo not shown) ... 4
N=C1NCC(C(O)C2NC(=O)C(Cc3ccc(OC4OC(CO)C(OC5OC6COC7(OC6C6OC8(OC56)C5CC6CC(C5)CC8C6)C5CC6CC(C5)CC7C6)C(O)C4O)cc3)NC(=O)C(CC3CCCCC3)NC(=O)CNC(=O)C(CO)NC(=O)C(C(O)C3CNC(=N)N3C3OC(CO)C(O)C(O)C3O)NC2=O)N1 (stereo not shown) [Example 106b] ... 8

// below: MIC Staphylococcus aureus (ATCC 29213) requested for another compound
Problem: Output measured MIC Staphylococcus aureus (ATCC 29213) for this item: CCCCCC(=O)OCC1OC(Oc2ccc(CC3NC(=O)C(C(C)c4ccccc4)NC(=O)CNC(=O)C(CO)NC(=O)C(C(O)C4CNC(=N)N4C4OC(CO)C(O)C(O)C4O)NC(=O)C(C(O)C4CNC(=N)N4)NC3=O)cc2)C(O)C(O)C1OC1OC(CO)C(O)C(O)C1O (stereo not shown) [Example 95a]
Result: 4

----------
Attribute: MIC Coagulase Negative Staphylococcus (GC 4549)
# System: Staphylococcus sp.
# Test name: in vitro antibacterial evaluation, MIC by broth dilution
# Assay type: cell-based
# Condition context: strain GC 4549; broth dilution, 18 hours at 35° C.
Give just the number in mg/L; leave the unit off.

Worked examples, 6 compounds total:
COc1ccc2cc(C3OCC4OC(OC5C(CO)OC(Oc6ccc(CC7NC(=O)C(C(C)c8ccccc8)NC(=O)CNC(=O)C(CO)NC(=O)C(CC8CNC(=N)N8C8OC(CO)C(O)C(O)C8O)NC(=O)C(CC8CNC(=N)N8)NC7=O)cc6)C(O)C5O)C(O)C(O)C4O3)ccc2c1 (stereo not drawn) ... 8
CC(c1ccccc1)C1NC(=O)CNC(=O)C(CO)NC(=O)C(C(O)C2CNC(=N)N2C2OC(CO)C(O)C(O)C2O)NC(=O)C(C(O)C2CNC(=N)N2)NC(=O)C(Cc2ccc(OC3OC(CO)C(OC4OC5COC(C)(c6ccc(F)cc6)OC5C(O)C4O)C(O)C3O)cc2)NC1=O (stereo not drawn) ... 1
CC(c1ccccc1)C1NC(=O)CNC(=O)C(CO)NC(=O)C(C(O)C2CNC(=N)N2C2OC(CO)C(O)C(O)C2O)NC(=O)C(C(O)C2CNC(=N)N2)NC(=O)C(Cc2ccc3oc(SCC(=O)c4ccccc4)nc3c2)NC1=O (stereo not drawn) ... 4
Cc1ccc(Oc2ccc(C3OCC4OC(OC5C(CO)OC(Oc6ccc(CC7NC(=O)C(C(C)c8ccccc8)NC(=O)CNC(=O)C(CO)NC(=O)C(C(O)C8CNC(=N)N8C8OC(CO)C(O)C(O)C8O)NC(=O)C(C(O)C8CNC(=N)N8)NC7=O)cc6)C(O)C5O)C(O)C(O)C4O3)cc2)cc1 (stereo not drawn) ... 1
CC(c1ccc(Cl)cc1)C1NC(=O)CNC(=O)C(CO)NC(=O)C(C(O)C2CNC(=N)N2C2OC(CO)C(O)C(O)C2O)NC(=O)C(C(O)C2CNC(=N)N2)NC(=O)C(Cc2ccc(OC3OC(CO)C(OC4OC5COC(c6ccccc6)OC5C(O)C4O)C(O)C3O)cc2)NC1=O (stereo not drawn) ... 1
CC(c1ccccc1)C1NC(=O)CNC(=O)C(CO)NC(=O)C(C(O)C2CNC(=N)N2C2OC(CO)C(O)C(O)C2O)NC(=O)C(C(O)C2CNC(=N)N2)NC(=O)C(Cc2ccc3oc(-c4ccc(C(C)(C)C)cc4)nc3c2)NC1=O (stereo not drawn) ... 2

Problem: Output measured MIC Coagulase Negative Staphylococcus (GC 4549) for this item: CC(c1ccc(Cl)cc1)C1NC(=O)CNC(=O)C(CO)NC(=O)C(C(O)C2CNC(=N)N2C2OC(CO)C(O)C(O)C2O)NC(=O)C(C(O)C2CNC(=N)N2)NC(=O)C(Cc2ccc(OC3OC(CO)C(OC4OC5COC(C6CCCCC6)OC5C(O)C4O)C(O)C3O)cc2)NC1=O (stereo not drawn)
Result: 0.25

Problem: Output measured MIC Coagulase Negative Staphylococcus (GC 4549) for this item: CC(C)=CCCC(C)=CCOc1ccc(C2OCC3OC(OC4C(CO)OC(Oc5ccc(CC6NC(=O)C(C(C)c7ccccc7)NC(=O)CNC(=O)C(CO)NC(=O)C(C(O)C7CNC(=N)N7C7OC(CO)C(O)C(O)C7O)NC(=O)C(C(O)C7CNC(=N)N7)NC6=O)cc5)C(O)C4O)C(O)C(O)C3O2)cc1 (stereo not drawn)
Result: 4

Problem: Output measured MIC Coagulase Negative Staphylococcus (GC 4549) for this item: CC(c1ccccc1)C1NC(=O)CNC(=O)C(CO)NC(=O)C(C(O)C2CNC(=N)N2C2OC(CO)C(O)C(O)C2O)NC(=O)C(C(O)C2CNC(=N)N2)NC(=O)C(Cc2ccc3oc(SCC(=O)c4ccc(Cl)cc4)nc3c2)NC1=O (stereo not drawn)
Result: 1

Problem: Output measured MIC Coagulase Negative Staphylococcus (GC 4549) for this item: CC(c1ccccc1)C1NC(=O)CNC(=O)C(CO)NC(=O)C(C(O)C2CN(Cc3ccc4ccccc4c3)C(=N)N2C2OC(CO)C(O)C(O)C2O)NC(=O)C(C(O)C2CNC(=N)N2)NC(=O)C(Cc2ccc(OC3OC(CO)C(OC4OC5COC6(OC5C(O)C4O)C4CC5CC(C4)CC6C5)C(O)C3O)cc2)NC1=O (stereo not drawn)
Result: 8
